test system: Demodex; test: Acaricidal experiment: in vitro culture of Demodex with compound solutions, time to death of mites; details: compound 10 mg/mL in 0.9% NaCl, 50 μl, 20° C., 96% humidity
Readout label: Average survival time of mites (h)

Molecule: N#Cc1ccc(C(c2ccc(C#N)cc2)n2cncn2)cc1 [Letrozole]
Unit tag: h
Number: 72

Molecule: CCOC(=O)C1=C(C)NC(C)=C(C(=O)OC)C1c1cccc(Cl)c1Cl (stereo not drawn) [Felodipine]
Unit tag: h
Number: 71

Molecule: Nc1ccc(S(=O)(=O)Nc2ccnn2-c2ccccc2)cc1 [Sulfaphenazole]
Unit tag: h
Number: 70
